Target: T1, recombinant, soluble human ASGR-1 (human, UniProt P07306 62-291)
T1 construct: biotinylated in the binning assay; also called soluble huASGR-1; Soluble ASGR-1 (Amgen)
T1 sequence: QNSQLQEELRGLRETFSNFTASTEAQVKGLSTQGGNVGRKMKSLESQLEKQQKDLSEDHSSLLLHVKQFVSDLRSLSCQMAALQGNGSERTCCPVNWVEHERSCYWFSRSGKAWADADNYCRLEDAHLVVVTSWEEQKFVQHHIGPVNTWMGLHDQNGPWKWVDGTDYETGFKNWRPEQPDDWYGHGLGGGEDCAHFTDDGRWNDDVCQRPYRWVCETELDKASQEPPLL
Experiment: Octet BLI dissociation, pH 5.6 plus calcium
Each entry below carries its reported % Change Compared to pH 7.4 + Calcium.
Just the number please, in %, no unit attached.

Exercise: Give recorded % Change Compared to pH 7.4 + Calcium. 193E7 (antibody, V domains shown, hybridoma mAb) VH: QVQLQQWGAGLLKPSETLSLTCAVYGGSFSGYFWTWIRQPPGKGLEWIGEINHSGSTNYNPSLKSRVTISVDTSKNQFSLKLSSVTAADTAVYYCARDYGADYWGQGTLVAVSA VL: DIQMTQSPSSLSASVGDRVTITCRASQGIRNDLGWYQQKPGKAPKRLIYSASSLQRGVPSRFSGSGSGTEFTLTISSLQPEDFATYYCLQHKRYPLTFGGGTKVEIK
Solution: -9

Exercise: Give recorded % Change Compared to pH 7.4 + Calcium. 72G9 (antibody, V domains shown, hybridoma mAb) VH: EVQLVESGGGLVKPGGSLRLSCAASGFTFSSYSMNWVRQAPGKGLEWVSSISGSSSYIYYADSVKGRFTISRDNAKNSLYLQMNSLRAEDTAVYFCARGGSRGFDPWGQGTLVTVSS VL: DIQMTQSPSSLSASVGDRVTITCRASQSITSYLNWYQQKPGKAPKLLIYTASSLQSGVPSRFSGSGSGTDFTLTISSLQPEDFATYYCQQSHSFPFTFGPGTKVDIK
Solution: -7

Exercise: Give recorded % Change Compared to pH 7.4 + Calcium. 191G10 (antibody, V domains shown, hybridoma mAb) VH: QVQLVESGGGVVQPGRSLRLSCAASGFTFSSYGMHWVRQAPGKGLEWVAVIWYDGSNKNYADSVKGRFTISRDNSKNTLYLQMNSLRAEDTAVYYCARDQGVGYDGLDVWGQGTTVTVSS VL: DIQMTQSPSSLSASVGDRVTITCRTSQGIGKYLAWFQQKPGKAPKSLLYKVSSLQSGVPSKFSGSGSGTDFTLTISSLQPEDFATYYCQQYMTYPLTFGGGTKVEIK
Solution: -5

Exercise: Give recorded % Change Compared to pH 7.4 + Calcium. 154F4 (antibody, V domains shown, hybridoma mAb) VH: QVQLVESGGGVVQPGRSLRLSCAASGFTFSSYGMHWVRQAPGKGLEWVAVIWYDGSNKYYADSVKGRFTISRDNSKNTLYLQMNSLRAEDTAVYYCAREDSYCSGTSCPYYYYYGMDVWGQGTTVTVSS VL: SYELTQPPSVSVSPGQTASITCSGDKLGNKYVCWYQQKPGQSPVEVIYKDSKRPSGIPERFSGSNSGNTGTLTISGTQAMDEADYYCQAWDNSTLVFGGGTKLTVL
Solution: 41
